Biological target: interaction between the NCAM F3 modules 1, 2 and the FGFR modules 2, 3 (Rattus norvegicus)
Sequence (P13596 507-705): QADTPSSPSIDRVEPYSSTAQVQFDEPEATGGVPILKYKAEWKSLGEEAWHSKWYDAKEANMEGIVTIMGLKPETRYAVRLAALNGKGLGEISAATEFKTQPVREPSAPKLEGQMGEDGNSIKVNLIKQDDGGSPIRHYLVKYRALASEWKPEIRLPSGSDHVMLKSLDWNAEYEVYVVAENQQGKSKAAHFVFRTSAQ
Test: biochemical
EXPERIMENTAL READOUT: pKi
API: returns pKi as number; meaning -log10 of concentration in mol/L.

input: Return pKi measured with interaction between the NCAM F3 modules 1, 2 and the FGFR modules 2, 3 (Rattus norvegicus) given this compound: Nc1ncnc2c1ncn2[C@@H]1O[C@H](COP(=O)(O)OP(=O)(O)OP(=O)(O)O)[C@@H](O)[C@H]1O [ATP, adenosine triphosphate, reference compound]
output: 3.43
